- measured.target: T1, rat NMUR1-TTG (rat, UniProt Q9JJI5 1-425)
- T1 sequence (looked up): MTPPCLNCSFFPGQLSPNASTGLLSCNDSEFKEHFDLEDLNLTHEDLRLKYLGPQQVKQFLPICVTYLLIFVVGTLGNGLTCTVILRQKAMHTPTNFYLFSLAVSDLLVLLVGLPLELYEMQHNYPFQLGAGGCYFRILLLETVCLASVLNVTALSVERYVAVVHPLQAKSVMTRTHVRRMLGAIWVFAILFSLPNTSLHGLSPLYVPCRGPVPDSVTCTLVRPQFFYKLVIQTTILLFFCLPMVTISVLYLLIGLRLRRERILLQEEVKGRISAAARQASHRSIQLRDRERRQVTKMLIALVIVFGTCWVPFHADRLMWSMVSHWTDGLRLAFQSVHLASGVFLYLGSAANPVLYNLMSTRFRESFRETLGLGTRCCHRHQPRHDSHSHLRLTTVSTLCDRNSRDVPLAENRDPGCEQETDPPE
- experiment: cell-based or functional assay
*: point of attachment. (PEG)2 40 kDa = branched PEG of 40 kDa linked via the Cys side-chain thiol (code C2 = Cys(PEG)2 40 kDa); Succinimide(1-Et,3-yl) = CCN1C(=O)CC(*)C1=O
endpoint.label: % Activity (FLIPR) (%)
Give the value in % but do not write % after it.

// known answers, use as guide
[
  {
    "binder": "Ac-C((PEG)2 40 kDa)ASQSRGYFLFRPRN-NH2 [NMU18]",
    "% Activity (FLIPR) [%]": 90.7
  },
  {
    "binder": "Ac-C(Succinimide(1-Et,3-yl))ASQSRGYFLFRPRN-NH2 (SMILES CCN1C(=O)CC(SC[C@H](NC(C)=O)C(=O)N[C@@H](C)C(=O)N[C@@H](CO)C(=O)N[C@@H](CCC(N)=O)C(=O)N[C@@H](CO)C(=O)N[C@@H](CCCNC(=N)N)C(=O)NCC(=O)N[C@@H](Cc2ccc(O)cc2)C(=O)N[C@@H](Cc2ccccc2)C(=O)N[C@@H](CC(C)C)C(=O)N[C@@H](Cc2ccccc2)C(=O)N[C@@H](CCCNC(=N)N)C(=O)N2CCC[C@H]2C(=O)N[C@@H](CCCNC(=N)N)C(=O)N[C@@H](CC(N)=O)C(N)=O)C1=O) [NMU17]",
    "% Activity (FLIPR) [%]": 105
  }
]

Now for a further binder.
Could you share which % Activity (FLIPR) value was measured for Ac-C(Succinimide(1-Et,3-yl))C(Succinimide(1-Et,3-yl))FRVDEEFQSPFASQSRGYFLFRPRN-NH2 [NMU22] ?
96.4
